The reported measurements were obtained from paper PMC10290130.

- Test system: LLC-MK2
- measurement-protocol: Cisplatin cytotoxicity, 72 h, read with phenothiazinium dyes, NR or MTT
- Format: cell-based, rhesus monkey
- test-conditions: indicator NMB
pIC50: −log10 of the molar value.
observed-property: pIC50

- molecule: "N.N.[Cl][Pt][Cl] [cisplatin, cis-diammineplatinum (II) dichloride]"
  quantitative-result: 4.55

---

- System: LLC-MK2
- measurement-protocol: Cisplatin cytotoxicity, 72 h, read with phenothiazinium dyes, NR or MTT
- Type: cell-based, rhesus monkey
- test-conditions: indicator TBO
pIC50: −log10 of the molar value.

- compound: "N.N.[Cl][Pt][Cl] [cisplatin, cis-diammineplatinum (II) dichloride]"
  pIC50: 4.52
